Quick reference for pIC50 among some compounds
# Target: Avi-KRAS G12D (2-169) GTP/RAF1 RBD-3xFLAG (51-131) (Homo sapiens, UniProt P01116, G12D)
# Construct: Avi-KRAS G12D (2-169)
# Sequence (P01116 2-169 isoform P01116-2 G12D): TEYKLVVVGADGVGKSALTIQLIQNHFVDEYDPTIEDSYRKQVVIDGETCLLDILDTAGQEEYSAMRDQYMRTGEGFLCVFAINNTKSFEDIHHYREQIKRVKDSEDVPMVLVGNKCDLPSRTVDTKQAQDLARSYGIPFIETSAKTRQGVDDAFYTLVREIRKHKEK
# Procedure Text: Raf1-KRAS G12D-GTP disruption HTRF assay (Biological Example 3)
# Type: binding
# Experimental Setup: KRAS G12D, GTP-loaded
pIC50: −log10 of the molar value.
Measured Quantity: pIC50

>>> test_result("N#Cc1c(N)sc2c(F)ccc(-c3c(C(F)(F)F)cc4c(N5CC6CC(C5)O6)nc(OC[C@@]56CCCN5C[C@H](F)C6)nc4c3F)c12 [Compound 145]")
"6.00 to 7.00"
>>> test_result("CCN(c1nc(OC[C@@]23CCCN2C[C@H](F)C3)nc2c(F)c(-c3ccc(F)c4sc(N)c(C#N)c34)c(C(F)(F)F)cc12)[C@H]1CCN(C(=O)[C@H]2CCO2)[C@H]1C (atropisomer, axis not shown) [Compound 868]")
"6.00 to 7.00"
>>> test_result("CCN(c1nc(OC[C@@]23CCCN2C[C@H](F)C3)nc2c(F)c(-c3ccc(F)c4sc(N)c(C#N)c34)c(C(F)(F)F)cc12)[C@H]1CCN(C(=O)c2cncs2)C1 (atropisomer, axis not shown; (aS)) [Compound 906]")
"6.00 to 7.00"
>>> test_result("CN(C)C(=O)N1CC[C@H](N(CCF)c2nc(OC[C@@]34CCCN3C[C@H](F)C4)nc3c(F)c(-c4ccc(F)c5sc(N)c(C#N)c45)c(C(F)(F)F)cc23)C1 (atropisomer, axis not shown) [Compound 828]")
"6.00 to 7.00"
>>> test_result("CN(Cc1cocn1)c1nc(OC[C@@]23CCCN2C[C@H](F)C3)nc2c(F)c(-c3ccc(F)c4sc(N)c(C#N)c34)c(C(F)(F)F)cc12 (atropisomer, axis not shown) [Compound 855]")
"6.00 to 7.00"
>>> test_result("N#Cc1c(N)sc2c(F)ccc(-c3c(C(F)(F)F)cc4c(N5CCC(c6cccnc6)C5)nc(OC[C@@]56CCCN5C[C@H](F)C6)nc4c3F)c12 (stereo partly drawn) [Compound 943]")
"< 5.00"
>>> test_result("CCC(=O)N1CC[C@@H](N(CC)c2nc(OC[C@@]34CCCN3C[C@H](F)C4)nc3c(F)c(-c4ccc(F)c5sc(N)c(C#N)c45)c(C(F)(F)F)cc23)[C@H]1C (atropisomer, axis not shown) [Compound 523]")
"≥ 7.00"
>>> test_result("CCN(c1nc(OC[C@@]23CCCN2C[C@H](F)C3)nc2c(F)c(-c3ccc(F)c4sc(N)c(C#N)c34)c(C(F)(F)F)cc12)[C@H]1C[C@H](COC)N(C(=O)[C@@H]2CC2(F)F)C1 (atropisomer, axis not shown) [Compound 854]")
"6.00 to 7.00"
>>> test_result("[2H][C@]1(N(CC)c2nc(OC[C@@]34CCCN3C[C@H](F)C4)nc3c(F)c(-c4ccc(F)c5sc(N)c(C#N)c45)c(C(F)(F)F)cc23)CCN(C(=O)N(C)C)C1 (atropisomer, axis not shown) [Compound 859]")
"6.00 to 7.00"
>>> test_result("CCN(c1nc(OC[C@]23CCCN2C[C@H](F)C3)nc2c(F)c(-c3ccc(F)c4sc(N)c(C#N)c34)c(C(F)(F)F)cc12)[C@H]1CCN(C(=O)C(C)C)C1 [Compound 705]")
"6.00 to 7.00"
>>> test_result("CCN(c1nc(OC[C@@]23CCCN2C[C@H](F)C3)nc2c(F)c(-c3ccc(F)c4sc(N)c(C#N)c34)c(C(F)(F)F)cc12)[C@H]1CCN(C(=O)N(C)C)C1 (atropisomer, axis not shown) [Compound 540]")
"≥ 7.00"
>>> test_result("CCN(c1nc(OC[C@@]23CCCN2C[C@H](F)C3)nc2c(F)c(-c3ccc(F)c4sc(N)c(C#N)c34)c(C(F)(F)F)cc12)[C@H]1CCN(C(=O)C2CN(C(C)=O)C2)C1 (atropisomer, axis not shown) [Compound 638]")
"≥ 7.00"
>>> test_result("CC(=O)N1CC(N(C)c2nc(OCC34CCCN3CC(F)C4)nc3c(F)c(-c4ccc(F)c5sc(N)c(C#N)c45)c(C(F)(F)F)cc23)CC1C (stereo not drawn) [Compound 291]")
"6.00 to 7.00"
>>> test_result("N#Cc1c(N)sc2c(F)ccc(-c3c(C(F)(F)F)cc4c(N5CCCC(c6cccnc6)C5)nc(OC[C@@]56CCCN5C[C@H](F)C6)nc4c3F)c12 (stereo partly drawn) [Compound 944]")
"< 5.00"
>>> test_result("CCN(c1nc(OC[C@@]23CCCN2C[C@H](F)C3)nc2c(F)c(-c3ccc(F)c4sc(N)c(C#N)c34)c(C(F)(F)F)cc12)[C@@H]1CCN(c2cccn(C)c2=O)C1 [Compound 964]")
"5.00 to 6.00"
>>> test_result("CCN(c1nc(OC[C@@]23CCCN2C[C@H](F)C3)nc2c(F)c(-c3ccc(F)c4sc(N)c(C#N)c34)c(C(F)(F)F)cc12)[C@@H]1CCCN(C)C1=O (atropisomer, axis not shown) [Compound 968]")
"6.00 to 7.00"
>>> test_result("CCN(c1nc(OC[C@@]23CCCN2C[C@H](F)C3)nc2c(F)c(-c3ccc(F)c4sc(N)c(C#N)c34)c(C(F)(F)F)cc12)[C@H]1C=C[C@@H](C(=O)N(C)C)C1 (atropisomer, axis not shown) [Compound 938]")
"5.00 to 6.00"
>>> test_result("C/C=C/C(=O)N1CC[C@H](N(CC)c2nc(OC[C@@]34CCCN3C[C@H](F)C4)nc3c(F)c(-c4ccc(F)c5sc(N)c(C#N)c45)c(C(F)(F)F)cc23)C1 (atropisomer, axis not shown) [Compound 674]")
"≥ 7.00"

Data provenance is patent US20260042764A1.
